# Test system: Trypanosoma brucei
# assay procedure: Trypanosoma brucei 72 hour study
# Type: functional, organism-based
# Design: scale not given: in the data most compounds retested in dose-response had high values
# experimental setup: 30 µM; 30.03 µM
About 960 (1.5%) of roughly 66,000 compounds showed an effect of 50% or more. This is one part of a sample in which strong results are shown more often than they occur.
Listed below: Percent Effect values for each entry.
observation type: Percent Effect (%)

{"compound": "O=C(Nc1cccnc1)[C@H]1CN(Cc2nccs2)C[C@H]2OCC[C@@H]12.O=C(O)C(F)(F)F.O=C(O)C(F)(F)F.O=C(O)C(F)(F)F", "observed": 6.623}
{"compound": "CC1CN(CCc2ccncc2)CCO1 (stereo unspecified)", "observed": -38.53}
{"compound": "CN(c1ncccc1C#N)C1CCN(CCc2ccncc2)CC1", "observed": -5.163}
{"compound": "O=C(c1ccc(Cl)cc1-n1cnnn1)N1CCC2(CC1)OCCO2", "observed": -30.99}
{"compound": "O=C(O)C1CC2(CCN(c3nccc4ccccc34)CC2)CN1 (stereo unspecified)", "observed": 23.73}
{"compound": "COc1cc(C2SCC(=O)Nc3ccsc32)cc(OC)c1O (stereo unspecified)", "observed": 23.79}
{"compound": "Cc1cc(N2CCC(NC(C)Cc3ccsc3)CC2)nc(C)n1 (stereo unspecified)", "observed": 18.53}
{"compound": "Cc1ccc(CN2CC[C@]3(C[C@H](OCc4ccccn4)CO3)C2)o1.O=C(O)C(F)(F)F.O=C(O)C(F)(F)F", "observed": 4.871}
{"compound": "O=C(NCc1cnn2cccnc12)C1CC2(CCNCC2)CN1 (stereo unspecified)", "observed": 54.89}
{"compound": "Cc1cc(N2CCC(NC(C)Cc3ccsc3)CC2)nc(N)n1 (stereo unspecified)", "observed": 101}
{"compound": "COc1ccccc1C1SCC(=O)Nc2n[nH]cc21 (stereo unspecified)", "observed": 40.76}

====

Recorded Percent Effect values for a group of compounds are listed next.
# Test system: Trypanosoma brucei
# assay procedure: Trypanosoma brucei 72 hour study
# Type: functional, organism-based
# Set-up: scale not given: in the data most compounds retested in dose-response had high values
# experimental setup: 30.3 µM; […]
Hit rate of the full screen: of about 66,000 compounds, about 960 (1.5%) showed an effect of 50% or more. Only a selection was taken, and strong results are over-represented in it overall.

{"compound": "O=C(O)C(F)(F)F.O=C(O)C(F)(F)F.O=C(O)C(F)(F)F.c1ccc(CN2CC[C@@H]3[C@@H](CO[C@@H]3CNc3ncccn3)C2)nc1", "Percent Effect": "-6.943%"}
{"compound": "O=C(Cc1c[nH]c2ccccc12)N1CCC(Nc2ccccc2)CC1", "Percent Effect": "-16.2%"}
{"compound": "CN1CC[C@H]2OCC[C@@]2(C(=O)NCCc2ccccn2)C1.O=C(O)C(F)(F)F.O=C(O)C(F)(F)F", "Percent Effect": "-17.73%"}
{"compound": "COCCN1CCO[C@@H]2CN(S(=O)(=O)c3cccnc3)C[C@@H]2C1.O=C(O)C(F)(F)F.O=C(O)C(F)(F)F", "Percent Effect": "-14.72%"}
{"compound": "Cc1cnc(N2CC3(CCN(Cc4cccnc4)C3)C2)nc1.O=C(O)C(F)(F)F.O=C(O)C(F)(F)F", "Percent Effect": "-6.103%"}
{"compound": "CCc1ccc(CN2CC[C@@H]3NC(=O)CC[C@@H]32)o1.O=C(O)C(F)(F)F", "Percent Effect": "-13.17%"}
{"compound": "O=C(O)C(F)(F)F.O=C(O)C(F)(F)F.c1cnc(N2CCO[C@H]3CN(CC4CCOCC4)C[C@H]32)nc1", "Percent Effect": "-91.37%"}
{"compound": "Fc1ccccc1CN1CCCC2(CCN(c3ncccn3)C2)C1 (stereo not drawn)", "Percent Effect": "102.7%"}

Where do the numbers come from? From ChEMBL document CHEMBL3988442.
